- procedure details: NCI Yeast Anticancer Drug Screen. Data for the sgs1 strain (AID 173);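 also: 0% = growth of vehicle-only control cultures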
- cond: S. cerevisiae sgs1 mutant, at 100.0 µM, stronger effect = higher value
- Protocol: Growth inhibition of yeast strains with defined genetic alterations is measured as a screen for potential anti-cancer activity. Selected strains with alterations in DNA damage repair or cell cycle control were exposed to compounds and growth inhibition was measured relative to vehicle treated controls. The strain used in this assay is sgs1
Compounds without any hit were thinned out: in the full panel of roughly 79,000, 15% have a hit. Activity calls are given as the source filed them. Rule as the data show it: active = growth inhibition above about 70%; inactive = the rest.
reported endpoint: growth inhibition

Consider the following illustrative entries.
# compound, growth inhibition
measured = [
    ("CC(/C=C/c1ccc2c(c1)OCO2)[N+](=O)[O-] (stereo not drawn)", "99% (active)"),
    ("COc1cc(C2c3cc4c(cc3OC(NNc3ccccc3)C2C)OCO4)cc(OC)c1OC (stereo not drawn)", "94% (active)"),
]

// lookup growth inhibition for O=C(O)C1OC1(c1cccc(Cl)c1)c1ccccc1Cl (stereo not drawn)
90% (active)
